Molecular target: T1, human GIP receptor (human, UniProt P48546 22-466)
T1 sequence (looked up): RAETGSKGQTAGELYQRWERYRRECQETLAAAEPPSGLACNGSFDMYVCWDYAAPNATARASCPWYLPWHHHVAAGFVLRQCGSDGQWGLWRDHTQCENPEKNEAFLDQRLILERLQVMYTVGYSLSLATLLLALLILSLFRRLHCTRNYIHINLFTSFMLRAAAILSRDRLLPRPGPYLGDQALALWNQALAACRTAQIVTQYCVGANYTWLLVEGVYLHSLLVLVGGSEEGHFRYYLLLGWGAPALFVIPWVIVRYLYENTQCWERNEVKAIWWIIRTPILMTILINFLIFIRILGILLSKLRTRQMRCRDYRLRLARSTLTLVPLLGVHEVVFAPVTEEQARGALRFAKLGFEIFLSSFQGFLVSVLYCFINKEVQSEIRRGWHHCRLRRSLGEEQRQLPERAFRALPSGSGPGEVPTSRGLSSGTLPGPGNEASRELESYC
Assay: cell-based or functional assay
Starred links: 1 amine or outer side, 2 acyl side, 3 side chain; linkers in the order of their positions; H or OH if unused. Non-standard residues stand in square brackets, D forms with d. Groups on a side chain read outwards from the residue. No end group written: not given here. *: point of attachment. C20 diacid = O=C(O)CCCCCCCCCCCCCCCCCCC(=O)*; C18 diacid = O=C(O)CCCCCCCCCCCCCCCCC(=O)*; γGlu = O=C(O)[C@H](CCC(=O)[*:2])N[*:1]; εLys = N[C@@H](CCCCN[*:1])C(=O)[*:2]; AEEA = NCCOCCOCC(=O)O; Aib = CC(C)(N)C(=O)O
Measured endpoint: EC50 CreLuc hGIPR 100% hP

Y[Aib]EGTFTSDYSI[Aib]LEEQAQ[Aib]AFVEWLIK([εLys-AEEA-γGlu-γGlu-γGlu-γGlu-γGlu-C20 diacid])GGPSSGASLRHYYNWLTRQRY-NH2 [Compound 110]
1.14 nM
Y[Aib]EGTFTSDYSI[Aib]LEKQAQ[Aib]EFVQWLIK([εLys-γGlu-γGlu-γGlu-γGlu-γGlu-C18 diacid])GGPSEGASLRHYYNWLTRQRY-NH2 [Compound 154]
1.07 nM

List reported EC50 CreLuc hGIPR 100% hP for each of these binders:
1. YXEGTFTSDYSIXLEKQAQXAFVEYLIKGGPSSGASLRHYYNWLTRQRY (Aib at 2, 13, 20; K28 side chain: C20DA-gGlu-gGlu-gGlu-gGlu-gGlu-gGlu-eLys; C-terminal NH2) [Compound 135]
2. Y[Aib]EGTFTSDLSI[Aib]LEKQAQ[Aib]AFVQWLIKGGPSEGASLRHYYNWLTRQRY-NH2 (not fully specified (residue 28)) [Compound 113]

Response:
1. 1.07 nM
2. 3.84 nM
